# TARGET DESC: muscle-type nicotinic acetylcholine receptor (nAChR) (Torpedo marmorata, UniProt P02711+Q6S3H8+Q6S3H9+Q6S3I0)
# Construct: native heteropentameric receptor purified from electroplaques, reconstituted in asolectin lipids and transplanted to Xenopus oocytes; with beta1, gamma and delta nAChR subunits (CHRNB1, CHRNG, CHRND) with two alpha1
# Sequence (P02711 25-461): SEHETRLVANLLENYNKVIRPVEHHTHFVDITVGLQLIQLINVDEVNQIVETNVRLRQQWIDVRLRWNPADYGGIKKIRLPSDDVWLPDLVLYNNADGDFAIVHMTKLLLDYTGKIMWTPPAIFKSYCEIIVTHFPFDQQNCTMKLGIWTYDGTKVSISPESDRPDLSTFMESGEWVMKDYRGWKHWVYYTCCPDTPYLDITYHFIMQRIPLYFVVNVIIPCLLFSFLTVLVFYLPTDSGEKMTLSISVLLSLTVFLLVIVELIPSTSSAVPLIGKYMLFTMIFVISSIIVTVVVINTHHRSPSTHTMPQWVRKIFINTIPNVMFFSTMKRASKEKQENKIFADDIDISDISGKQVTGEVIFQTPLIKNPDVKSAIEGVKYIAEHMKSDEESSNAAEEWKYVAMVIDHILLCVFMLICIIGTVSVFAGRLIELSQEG
# Sequence (Q6S3I0 25-493): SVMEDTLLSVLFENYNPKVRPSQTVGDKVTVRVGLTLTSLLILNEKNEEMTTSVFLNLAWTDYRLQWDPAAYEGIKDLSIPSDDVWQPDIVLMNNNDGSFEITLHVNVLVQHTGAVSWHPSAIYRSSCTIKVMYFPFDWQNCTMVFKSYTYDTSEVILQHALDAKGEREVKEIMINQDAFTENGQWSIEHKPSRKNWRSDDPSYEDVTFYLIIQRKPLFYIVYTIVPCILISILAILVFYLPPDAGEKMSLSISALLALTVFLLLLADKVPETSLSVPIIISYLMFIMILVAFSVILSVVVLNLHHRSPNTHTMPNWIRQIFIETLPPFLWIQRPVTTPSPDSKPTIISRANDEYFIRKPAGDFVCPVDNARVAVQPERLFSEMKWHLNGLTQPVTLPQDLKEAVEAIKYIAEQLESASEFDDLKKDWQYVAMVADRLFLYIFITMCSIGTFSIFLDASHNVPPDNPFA
# Sequence (Q6S3H9 18-505): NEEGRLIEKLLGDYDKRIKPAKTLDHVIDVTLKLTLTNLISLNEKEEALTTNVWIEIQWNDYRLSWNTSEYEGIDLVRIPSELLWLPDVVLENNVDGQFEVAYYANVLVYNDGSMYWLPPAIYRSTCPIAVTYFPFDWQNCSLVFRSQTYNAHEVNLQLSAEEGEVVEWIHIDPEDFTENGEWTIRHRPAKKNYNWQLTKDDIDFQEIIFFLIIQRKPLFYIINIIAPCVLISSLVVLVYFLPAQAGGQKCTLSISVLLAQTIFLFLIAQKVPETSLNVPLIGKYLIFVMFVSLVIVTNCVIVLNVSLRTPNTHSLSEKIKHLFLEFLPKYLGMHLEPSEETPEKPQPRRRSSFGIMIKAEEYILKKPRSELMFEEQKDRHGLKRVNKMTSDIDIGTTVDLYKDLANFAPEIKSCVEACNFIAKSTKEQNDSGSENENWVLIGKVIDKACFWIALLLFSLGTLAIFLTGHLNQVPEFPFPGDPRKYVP
# Sequence (Q6S3H8 22-522): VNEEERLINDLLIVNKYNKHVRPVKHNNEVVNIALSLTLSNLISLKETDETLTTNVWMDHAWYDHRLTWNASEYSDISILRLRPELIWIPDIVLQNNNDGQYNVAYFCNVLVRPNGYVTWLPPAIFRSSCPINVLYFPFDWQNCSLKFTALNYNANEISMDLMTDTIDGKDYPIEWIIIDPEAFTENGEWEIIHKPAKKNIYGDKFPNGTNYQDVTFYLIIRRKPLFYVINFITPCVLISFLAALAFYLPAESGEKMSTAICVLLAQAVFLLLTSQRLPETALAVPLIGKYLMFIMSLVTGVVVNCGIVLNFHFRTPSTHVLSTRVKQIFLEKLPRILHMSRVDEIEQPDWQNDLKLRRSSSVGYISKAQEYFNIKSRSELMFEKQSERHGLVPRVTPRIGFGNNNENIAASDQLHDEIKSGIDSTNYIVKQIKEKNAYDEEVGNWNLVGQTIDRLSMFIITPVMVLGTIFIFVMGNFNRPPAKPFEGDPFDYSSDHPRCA
# MEASUREMENT PROTOCOL: two-electrode voltage clamp of ACh-elicited peak currents ([…] ACh) in Xenopus oocytes bearing transplanted nAChRs
MEASUREMENT NAME: pIC50
Answers are plain numbers, as −log10 of the molar value.

-- ask Give pIC50 for CCCCNc1ccc(C(=O)OCCN(C)C)cc1 [Ttc]
-- reply 6.15

Each recorded value in this set is attributed to paper PMC6092513.
